Tested on: Pseudomonas 3 (Pseudomonas mandelii)
PROCEDURE DETAILS: relative growth (AUC of 72 h growth curve relative to DMSO control, dAUC) (ratio); higher = more growth (less inhibition), active = hit call of the paper
CONDITION DETAILS: 20 µM
Please go through the items and note down their relative growth.

Summary for this compound, CCC(C)c1ccccc1OC(=O)NC (configuration not stated) : relative growth is 1.07 (inactive)

Summary for this compound, `CCNc1nc(Cl)nc(NC(C)C)n1` : relative growth is 0.996 (inactive)

Summary for this compound, ClC1C(Cl)C(Cl)C(Cl)C(Cl)C1Cl (configuration not stated) : relative growth is 0.99 (inactive)

Summary for this compound, `Cc1ccc(/N=C/N(C)/C=N/c2ccc(C)cc2C)c(C)c1` : relative growth is 1.1 (inactive)

Summary for this compound, `C[N+](C)(C)CCCl` : relative growth is 1.01 (inactive)

Summary for this compound, `CCC(=O)Nc1ccc(Cl)c(Cl)c1` : relative growth is 0.984 (inactive)

Summary for this compound, `COc1cc(OC)nc(NC(=O)NS(=O)(=O)c2ncccc2C(=O)N(C)C)n1` : relative growth is 1.01 (inactive)
